Hello, the source for this data is ChEMBL document CHEMBL1144865, in case you need it.

Catalogue of IC50 readings, one per entry.
Tested on: Human immunodeficiency virus 2
Test: Concentration required to inhibit the viral (HIV-2 ROD) cytopathic effect by 50% in MT-4 cells.
Assay type: functional, organism-based, MT4
Details: Human immunodeficiency virus 2, MT4

* COc1cccc(Nn2cnc(C)c2-c2ccccc2)c1 | > 34.4 µM
* Cc1cc(C)cc(Nn2cnc(C)c2-c2ccccc2)c1 | > 20.4 µM
* Cc1c(-c2ccccc2)nc(S)n1Nc1cccc(Cl)c1 | > 50 µM

Now consider a different compound.
# lookup: COc1cccc(NN2C(S)=NC(C)C2c2ccccc2)c1 (centres undefined) on Human immunodeficiency virus 2, IC50 = > 38 µM

====

System: Human immunodeficiency virus 1
Assay: Concentration required to inhibit the viral (HIV-1 IIIB strain) cytopathic effect by 50% in MT-4 cells.
Assay type: functional, organism-based
Details: Human immunodeficiency virus 1, MT4
ENDPOINT_LABEL: IC50

* Cc1cccc(Nn2cnc(C)c2-c2cccc(C(N)=O)c2)c1 | > 162 µM
* CC1N=C(S)N(Nc2cccc(Br)c2)C1c1ccccc1 (stereo not given) | 9.96 µM
* CCC1N=C(S)N(Nc2cccc(Cl)c2)C1c1ccccc1 (stereo not given) | 9.06 µM

Entry CCc1ncn(Nc2cccc(C)c2)c1-c1ccccc1 — recorded IC50 = > 27.9 µM

Entry Cc1cccc(NN2C(S)=NC(C(C)C)C2c2ccccc2)c1 (stereo not given) — recorded IC50 = > 42.6 µM

Entry COC(=O)c1c(C)ncn1Nc1cccc(Cl)c1 — recorded IC50 = > 107 µM

Entry Cc1nc(S)n(Nc2cccc(Cl)c2)c1-c1ccccc1 — recorded IC50 = 6.39 µM

====

Tested on: Human immunodeficiency virus 1
Assay: Concentration required to inhibit the viral (HIV-1 IIIB strain) cytopathic effect by 50% in MT-4 cells.
Format: functional, organism-based
Details: Human immunodeficiency virus 1, MT4
pIC50: −log10 of the molar value.
Catalogue of pIC50 readings, one per entry.

• COC(=O)c1cccc(C2C(C)N=C(S)N2Nc2cccc(Cl)c2)c1 (stereo not drawn) = < 4.17
• Cc1cccc(Nn2cnc(C)c2-c2cccc(C#N)c2)c1 = < 4.35
• CC1N=C(S)N(Nc2cccc([N+](=O)[O-])c2)C1c1ccccc1 (stereo not drawn) = 5.14

Entry Cc1nc(S)n(Nc2cccc(Cl)c2)c1-c1cccc(Br)c1 — recorded pIC50 = 5.07

Entry CC1N=C(S)N(Nc2cc(Cl)ccc2Cl)C1c1ccccc1 (stereo not drawn) — recorded pIC50 = < 3.83

Entry CSc1ccc(NN2C(S)=NC(C)C2c2ccccc2)cc1 (stereo not drawn) — recorded pIC50 = < 4.28

Entry Cc1nc(S)n(Nc2ccc(F)cc2)c1-c1ccccc1 — recorded pIC50 = < 3.66

Entry Cc1nc(S)n(Nc2cccc(Cl)c2)c1-c1cccc(Cl)c1 — recorded pIC50 = 5.30

====

Tested on: Human immunodeficiency virus 1
Assay: Concentration required to inhibit the viral (HIV-1 IIIB strain) cytopathic effect by 50% in MT-4 cells.
Type: functional, organism-based
Details: Human immunodeficiency virus 1, MT4
ENDPOINT_LABEL: IC50

// solved cases for IC50 follow
• Cc1ncn(Nc2cccc(Cl)c2)c1-c1cccc(C(N)=O)c1 = > 260 µM
• CSc1nc(C)c(-c2ccccc2)n1Nc1cccc(Cl)c1 = > 42.1 µM
• Cc1cccc(NN2C(S)=NC(C)C2c2cccc(C#N)c2)c1 (stereo not given) = > 45.6 µM
• CC1N=C(S)N(Nc2ccccc2)C1C (stereo not given) = > 181 µM
• Cc1c(-c2ccccc2)nc(S)n1Nc1cccc(Cl)c1 = > 50 µM
• Cc1cccc(NN2C(S)=NC(C)C2C)c1 (stereo not given) = > 360 µM

Entry CC1N=C(S)N(Nc2cccc(Cl)c2)C1c1cccc(C#N)c1 (stereo not given) — recorded IC50 = ≥ 99.4 µM

Entry SC1=NC(c2ccccc2)C(c2ccccc2)N1Nc1cccc(Cl)c1 (stereo not given) — recorded IC50 = > 36.3 µM

Entry Cc1nc(S)n(Nc2cccc(Cl)c2)c1-c1ccc(Br)cc1 — recorded IC50 = > 33.2 µM

Entry CCC1N=C(S)N(Nc2cccc(C)c2)C1c1ccccc1 (stereo not given) — recorded IC50 = 17.6 µM
